This collection of values is drawn from ChEMBL document CHEMBL1201862.

# Tested on: IGROV-1
# ASSAY METHOD TEXT: NCI tumour cell line growth inhibition, 48 h
Activity calls are given as the source filed them. Cut-off read from the data, not from the text of the source: active = GI50 up to about 1.1 µM and inactive = higher.
Classes used: active, inactive

- COMPOUND: "CC1(C)[C@H]2CC[C@](C)(C2)[C@]1(S)Cc1ccccn1"
  CATEGORY LABEL: "inactive"
- COMPOUND: "COc1ccc(N2C(=O)C3c4[nH]c5cccc(C)c5c4C4CCC(C(C)(C)C)CC4C3C2=O)cc1 (stereo not drawn)"
  CATEGORY LABEL: "inactive"
- COMPOUND: "CCCCCCCCC1C(C)c2c([nH]c3ccccc23)C2C(=O)N(c3ccccc3)C(=O)C21 (stereo not drawn)"
  CATEGORY LABEL: "inactive"
- COMPOUND: "COC(=O)NC1C(C)OC(OC2C/C=C(/C)C3C=CC4C(OC5CC(OC6CC(O)C(OC7CC(O)C(OC)C(C)O7)C(C)O6)C(O)C(C)O5)C(C)CC(C)C4C3(C)C(=O)C3=C(O)C4(CC(C)C(CO)=CC4/C=C\\2C)OC3=O)CC1(C)[N+](=O)[O-] (stereo not drawn)"
  CATEGORY LABEL: "inactive"
- COMPOUND: "CCCC(=O)OC[n+]1cccc(-c2c(COC(=O)NC(C)C)c(COC(=O)NC(C)C)c3n2CCC3)c1"
  CATEGORY LABEL: "inactive"
- COMPOUND: "NC(=S)N1N=C2c3ccccc3CCC[C@H]2[C@@H]1c1ccccc1"
  CATEGORY LABEL: "inactive"
- COMPOUND: "COC1C(OC(N)=O)C(O)C(Oc2ccc3c(O)c(NC(=O)c4ccc(O)c(CC=C(C)C)c4)c(=O)oc3c2C)OC1(C)C (stereo not drawn)"
  CATEGORY LABEL: "inactive"
- COMPOUND: "CC(=NNC(=S)Nc1ccc(C)cc1)c1cccc(C(C)=NNC(=S)Nc2ccc(C)cc2)n1"
  CATEGORY LABEL: "inactive"
- COMPOUND: "CCOP(=O)(O)C(C)(C)NC"
  CATEGORY LABEL: "inactive"
- COMPOUND: "Cc1cc2nc(N3C(=O)/C(=C/c4ccc(Cl)cc4)N=C3c3ccccc3)sc2cc1C"
  CATEGORY LABEL: "inactive"
- COMPOUND: "CC(=O)OC1CCC2(C)C(=CCC3C2CCC2(C)C(C(C)C(=O)O)CCC32)C1 (stereo not drawn)"
  CATEGORY LABEL: "inactive"
- COMPOUND: "O/N=C1/C(=C/c2ccc(Cl)c(Cl)c2)CCCC1C(NO)c1ccc(Cl)c(Cl)c1 (stereo not drawn)"
  CATEGORY LABEL: "inactive"
- COMPOUND: "C=C1C(O)C2(O)OCC34C(CC5C(C)=CC(=O)C(O)C5(C)C23)OC(=O)C(OC(=O)C/C=C(\\C)CCCCC)C14 (stereo not drawn)"
  CATEGORY LABEL: "active"
- COMPOUND: "OCSc1nn(CO)c(=S)s1"
  CATEGORY LABEL: "inactive"
- COMPOUND: "CCOC(=O)[C@@H](Cc1ccc(CCl)cc1)NC(C)=O"
  CATEGORY LABEL: "inactive"
- COMPOUND: "CCOc1ccc(/N=N/C2C(=O)N(C(=O)CC(=O)Nc3ccccc3OC)N=C2C)cc1 (stereo not drawn)"
  CATEGORY LABEL: "inactive"
- COMPOUND: "Cc1nn(-c2ccccc2)c(C)c1/C=N/NC(=O)c1sc(=S)n(-c2ccc(Cl)cc2)c1N"
  CATEGORY LABEL: "inactive"
- COMPOUND: "c1ccc(CNC2CC(NCc3ccccn3)CC(NCc3ccccn3)C2)nc1 (stereo not drawn)"
  CATEGORY LABEL: "inactive"
